Entries and their β2 Int Act values follow.
Target: Adrenergic β2 (Homo sapiens, UniProt P07550)
Construct: Adherent H292 cells were removed from tissue culture flasks; endogenous in cells; host or cells: H292 cells
Sequence (P07550 whole entry): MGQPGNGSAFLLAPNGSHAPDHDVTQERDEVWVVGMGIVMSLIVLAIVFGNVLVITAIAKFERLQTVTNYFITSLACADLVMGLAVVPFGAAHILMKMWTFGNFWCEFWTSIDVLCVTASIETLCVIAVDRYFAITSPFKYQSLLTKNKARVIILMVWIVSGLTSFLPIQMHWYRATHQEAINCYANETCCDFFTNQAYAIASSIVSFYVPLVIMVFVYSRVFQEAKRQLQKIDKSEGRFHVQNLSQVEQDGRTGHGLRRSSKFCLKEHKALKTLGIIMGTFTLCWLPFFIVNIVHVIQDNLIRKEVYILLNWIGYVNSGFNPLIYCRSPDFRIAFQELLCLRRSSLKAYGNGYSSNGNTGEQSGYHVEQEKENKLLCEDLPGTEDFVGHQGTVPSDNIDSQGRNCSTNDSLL
Assay: Adrenergic β2 mediated cAMP production in H292 cells (AlphaScreen cAMP detection)
Assay type: cell-based
Conditions: Intrinsic Activity, fraction relative to the maximum activity determined for formoterol
Counter-ions that a name gives are not always drawn.
readout: β2 Int Act

>  <compound>
O=C(CCNCCc1c(F)cccc1F)N(CCNCCc1ccc(O)c2[nH]c(=O)sc12)C1CCCCCC1 [Example 84, bis-trifluoroacetic acid salt]

>  <readout>
β2 Int Act

>  <quantitativeResult>
0.89

$$$$
>  <compound>
O=C(CCNCCc1ccccc1)N(CCNCCc1ccc(O)c2[nH]c(=O)sc12)C1Cc2ccccc2C1 [Example 41, bis-trifluoroacetic acid salt]

>  <readout>
β2 Int Act

>  <quantitativeResult>
0.99

$$$$
>  <compound>
O=C(CCNCCc1ccccc1)N(CCNCCc1ccc(O)c2[nH]c(=O)sc12)C1CCCCC1 [Example 5, bis-trifluoroacetic acid salt]

>  <readout>
β2 Int Act

>  <quantitativeResult>
0.83

$$$$
